Test system: Bovine cardiac myofibrils
Assay: In vitro model of dose-dependent myofibril ATPase modulation (AC1.4, pyruvate kinase/lactate dehydrogenase-coupled ATPase assay at pCa25)
Assay type: biochemical
Conditions: concentration at which ATPase activity was 1.4-fold higher than the bottom of the dose curve, mean of a minimum of two independent tests
Experimental: In vitro Model of Dose-Dependent Myofibril ATPase Modulation: Dose responses were measured using a calcium-buffered, pyruvate kinase and lactate dehydrogenase-coupled ATPase assay containing the following reagents (concentrations expressed are final assay concentrations): Potassium PIPES (12 mM), MgCl2 (2 mM), ATP (1 mM), DTT (1 mM), BSA (0.1 mg/mi), NADH (0.5 mM), PEP (1.5 mM), pyruvate kinase (4 U/ml), lactate dehydrogenase (8 U/ml), and antifoam (90 ppm). […]
assayMetric: log10 of AC1.4 (log10 of the value in µM)
Log10 applied to AC1.4; unit prior to transform: µM.

Worked set:
CS(=O)(=O)c1ccc(C(=O)N2CCC[C@@H]2C(=O)NC(c2ccc(C(F)(F)F)cc2F)C2CC2)s1 (stereo partly shown) | 0.49
N#C[C@H]1C[C@H](S(=O)(=O)N2CCC[C@H](C(=O)N3CCC[C@@H]3C(=O)NCc3ccc(C(F)(F)F)cc3)C2)C1 | 0.54
O=C(N[C@@H](c1cc(F)c(C(F)(F)F)cc1F)C1CC1)[C@H]1C[C@H]2C[C@H]2N1C(=O)c1cncc(C(F)(F)F)c1 | 0.05
O=C(NCc1ccc(C(F)(F)F)cc1)[C@H]1CCCN1C(=O)[C@H]1CCCN(S(=O)(=O)N2CC3(C2)CC(O)(C(F)(F)F)C3)C1 | 0.86
O=C(NCc1ccc(C(F)(F)F)cc1)[C@H]1CCCN1C(=O)[C@H]1CCCN(S(=O)(=O)N2CCC2Cc2ccccc2)C1 (stereo partly shown) | 0.80
CS(=O)(=O)c1cccc(C(=O)N2C[C@H]3C[C@H]3[C@@H]2C(=O)N[C@@H](c2ccc(C(F)(F)F)cc2F)C2CC2)c1 | 0.15

Look up log10 of AC1.4 for this compound: `C[C@@H](NC(=O)[C@H]1CCCN1C(=O)[C@H]1CCCN(S(=O)(=O)N2CC(C#N)C2)C1)c1cc(F)cc(F)c1`
0.13

Look up log10 of AC1.4 for this compound: `N#CC1CN(S(=O)(=O)N2CCC[C@H](C(=O)N3CCC[C@@H]3C(=O)NCc3ccccc3Cl)C2)C1`
0.51

Look up log10 of AC1.4 for this compound: `O=C(N[C@@H](c1cc(F)c(Cl)cc1F)C1CC1)[C@H]1C[C@@H](O)CN1C(=O)c1ccnc(C(F)(F)F)c1`
0.13

---

Each record here notes measured log10 AC1.4.
tested on: Bovine cardiac myofibrils; test: In vitro model of dose-dependent myofibril ATPase modulation (AC1.4, pyruvate kinase/lactate dehydrogenase-coupled ATPase assay at pCa25); type: biochemical; conditions: concentration at which ATPase activity was 1.4-fold higher than the bottom of the dose curve, mean of a minimum of two independent tests
Log10 applied to AC1.4; unit prior to transform: µM.

Worked set:
CS(=O)(=O)c1cccc(C(=O)N2CSC[C@@H]2C(=O)N[C@@H](c2ccc(C(F)(F)F)cc2F)C2CC2)c1 | -0.67
N#CC1CN(S(=O)(=O)N2CCC[C@H](C(=O)N3CCC[C@@H]3C(=O)NCc3cc(F)cc(Cl)c3)C2)C1 | -0.07

Look up log10 AC1.4 for this molecule: N#CC1CN(S(=O)(=O)N2CCC[C@H](C(=O)N3CCC[C@@H]3C(=O)NC(c3cc(F)ccc3F)C(F)F)C2)C1 (stereo partly shown)
0.41

Look up log10 AC1.4 for this molecule: `O=C(O[C@@H]1C[C@H](C(=O)N[C@@H](c2cc(F)c(Cl)cc2F)C2COC2)N(C(=O)c2ccnc(C(F)(F)F)c2)C1)c1ccnc(C(F)(F)F)c1`
0.36

---

Each record here notes measured AC1.4.
Test system: Bovine cardiac myofibrils
Assay: In vitro model of dose-dependent myofibril ATPase modulation (AC1.4, pyruvate kinase/lactate dehydrogenase-coupled ATPase assay at pCa25)
Type: biochemical
Settings: concentration at which ATPase activity was 1.4-fold higher than the bottom of the dose curve, mean of a minimum of two independent tests
Experimental: In vitro Model of Dose-Dependent Myofibril ATPase Modulation: Dose responses were measured using a calcium-buffered, pyruvate kinase and lactate dehydrogenase-coupled ATPase assay containing the following reagents (concentrations expressed are final assay concentrations): Potassium PIPES (12 mM), MgCl2 (2 mM), ATP (1 mM), DTT (1 mM), BSA (0.1 mg/mi), NADH (0.5 mM), PEP (1.5 mM), pyruvate kinase (4 U/ml), lactate dehydrogenase (8 U/ml), and antifoam (90 ppm). […]
I only need the number, in µM, no unit after it.

Worked set:
CS(=O)(=O)c1cccc(C(=O)N2C[C@@H](C(F)F)C[C@@H]2C(=O)N[C@@H](c2ccc(C(F)(F)F)cc2F)C2CC2)c1 | 4.071
COc1ccc(S(C)(=O)=O)cc1C(=O)N1CCCC[C@@H]1C(=O)N[C@@H](c1ccc(C(F)(F)F)cc1F)C1CC1 | 4.377
CS(=O)(=O)c1cncc(C(=O)N2C[C@H]3C[C@H]3[C@@H]2C(=O)N[C@@H](c2cc(F)c(Cl)cc2F)C2CC2)c1 | 2.252

Look up AC1.4 for this compound: `CC(C)(C)OC1CN(S(=O)(=O)N2CCC[C@H](C(=O)N3CCC[C@@H]3C(=O)NCc3ccc(C(F)(F)F)cc3)C2)C1`
6.866

Look up AC1.4 for this compound: `N#CC1CN(S(=O)(=O)N2CCC[C@H](C(=O)N3CCC[C@@H]3C(=O)N[C@@H](c3ccc(Cl)cc3F)C3CC3)C2)C1`
0.01475

Look up AC1.4 for this compound: CS(=O)(=O)c1cccc(C(=O)N2CC3(CCC3)C2C(=O)N[C@@H](c2ccc(C(F)(F)F)cc2F)C2CC2)c1 (some centres unmarked)
3.7443

Look up AC1.4 for this compound: `CC(C)[C@H](NC(=O)[C@H]1CCCN1C(=O)c1cccc(S(=O)(=O)N2CC(C#N)C2)c1)c1ccc(C(F)(F)F)cc1F`
0.4809

Look up AC1.4 for this compound: `C[C@@H](NC(=O)[C@H]1CC(F)(F)CN1C(=O)c1cccc(S(=O)(=O)N2CC(C#N)C2)c1)c1ccc(C(F)(F)F)cc1`
0.0171

Look up AC1.4 for this compound: `O=C(NCc1ccc(C(F)(F)F)cc1)[C@H]1CCCN1C(=O)[C@H]1CCCN(S(=O)(=O)N2CC(OCC(F)F)C2)C1`
0.8393

Look up AC1.4 for this compound: `CN(C)S(=O)(=O)N1CCC[C@H](C(=O)N2CCC[C@@H]2C(=O)NCc2ccc(C(F)(F)F)cc2)C1`
7.232

Look up AC1.4 for this compound: `O=C(NCc1ccc(C(F)(F)F)cc1)[C@H]1CCCN1C(=O)[C@H]1CCCN(S(=O)(=O)N2CC3(CCO3)C2)C1`
4.538

---

test system: Bovine cardiac myofibrils; experiment: In vitro model of dose-dependent myofibril ATPase modulation (AC1.4, pyruvate kinase/lactate dehydrogenase-coupled ATPase assay at pCa25); assay type: biochemical; details: concentration at which ATPase activity was 1.4-fold higher than the bottom of the dose curve, mean of a minimum of two independent tests
assayMetric: AC1.4 (µM)
I only need the number, in µM, no unit after it.

Worked set:
Cc1ccc(CNC(=O)[C@H]2CCCN2C(=O)[C@H]2CCCN(S(=O)(=O)N3CC(C#N)C3)C2)c(F)c1 | 0.3278
CS(=O)(=O)N1CC(F)(c2cccc(C(=O)N3[C@@H](C(=O)N[C@@H](c4ccc(C(F)(F)F)cc4F)C4CC4)C[C@H]4C[C@H]43)c2)C1 | 1.5655
C[C@H](C(=O)NCc1ccnc(C(F)(F)F)c1)N(C)C(=O)c1cccc(S(=O)(=O)N2CC(C#N)C2)c1 | 6.3585
Cc1cc(C(F)(F)F)ccc1CNC(=O)[C@H]1CCCN1C(=O)[C@H]1CCCN(S(=O)(=O)N2CC(C#N)C2)C1 | 0.0657
COCC1CN(S(=O)(=O)N2CCC[C@H](C(=O)N3CCC[C@@H]3C(=O)NCc3ccc(C(F)(F)F)cc3)C2)C1 | 8.9395

Consider the record given below.
Look up AC1.4 for this compound: `N#CC1CN(S(=O)(=O)N2CCC[C@H](C(=O)N3CCC[C@@H]3C(=O)NCc3cc(F)c(Cl)cc3F)C2)C1`
0.02545

---

test system: Bovine cardiac myofibrils; assay: In vitro model of dose-dependent myofibril ATPase modulation (AC1.4, pyruvate kinase/lactate dehydrogenase-coupled ATPase assay at pCa25); type: biochemical; conditions: concentration at which ATPase activity was 1.4-fold higher than the bottom of the dose curve, mean of a minimum of two independent tests
assayMetric: log10 AC1.4 (log10 of the value in µM)
Log10 applied to AC1.4; unit prior to transform: µM.

Worked set:
NS(=O)(=O)c1cc(C(=O)N2CCC[C@@H]2C(=O)N[C@@H](c2ccc(C(F)(F)F)cc2F)C2CC2)c(Cl)cc1F [Example 777] | 0.92
CC(C)(O)c1cccc(C(=O)N2[C@@H](C(=O)N[C@@H](c3cc(F)c(C(F)(F)F)cc3F)C3COC3)C[C@H]3C[C@H]32)c1 [Example 819] | 0.13
N#CC1CN(S(=O)(=O)c2cccc(C(=O)N3CCC[C@@H]3C(=O)NCc3ccc(C(F)(F)F)cc3F)c2)C1 [Example 42] | -1.37
Cc1ccc([C@H](NC(=O)[C@H]2C[C@H]3C[C@H]3N2C(=O)c2cccc(S(C)(=O)=O)c2)C2CC2)cc1F [Example 810] | 0.71
Cc1cc(CNC(=O)[C@H]2CCCN2C(=O)[C@H]2CCCN(S(=O)(=O)N3CC(C#N)C3)C2)ccc1Cl [Example 137] | -0.64

Look up log10 AC1.4 for this molecule: N#CC1CN(S(=O)(=O)N2CCC[C@H](C(=O)N3[C@@H]4C[C@@H]4C[C@H]3C(=O)NCc3ccc(C(F)(F)F)cc3)C2)C1 [Example 801]
0.98

Look up log10 AC1.4 for this molecule: C[C@@H](NC(=O)[C@H]1COCCN1C(=O)c1cccc(S(=O)(=O)N2CC(C#N)C2)c1)c1ccc(C(F)(F)F)cc1 [Example 19]
-1.60

Look up log10 AC1.4 for this molecule: CS(=O)(=O)c1ccc(N)c(C(=O)N2CCC[C@@H]2C(=O)N[C@@H](c2ccc(C(F)(F)F)cc2F)C2CC2)c1 [Example 345]
-0.01

Look up log10 AC1.4 for this molecule: CS(=O)(=O)c1cc(C(=O)N2CCC[C@@H]2C(=O)N[C@@H](c2ccc(C(F)(F)F)cc2F)C2CC2)ccc1N [Example 805]
0.99
